Data provenance: the nanobody polyreactivity screen of Harvey et al. (2022)

# method summary: yeast display, Sf9 membrane polyspecificity reagent, FACS + sequencing; frameworks hold sequencing errors
reported property: polyreactivity (PSR sort gate)

[[record]]
chain_sequence = "QVQLVESGGGLVQAGGSLRLSCAASGRIFNYYAMGWYRQAPGKVTEFVASITSRGGTTYYADSVKGRFTISRDNAKNTVYLQMNCLKTEDTAVYFCAAVTRQGSRRSRMNYWGQGTQVTVSS"
result = "high polyreactivity"

[[record]]
chain_sequence = "QVQHVESGGGLVQAGGSLRLSCAASGRIFPAYAMGWYRQATGKERELVATISSTGSRSYYADSVKGRFTISRDNAKNTVYLQMNSLKPEDTAVYYCAARQRYKVGGLYGVDYWGQGTQVTVSS"
result = "high polyreactivity"

[[record]]
chain_sequence = "QVQLVESGGGLVQAGGSLRLSCAASGRIFRWYTMGWYRQAPGKERELVARISSGGITYYADSVKGPFTISRDNAKNTVYLQMNSLKPEDTAVYYCNTYVSRNFDYWGQGTQLTVSS"
result = "high polyreactivity"

